target: X-box-binding protein 1 (Homo sapiens) (UniProt P17861); assay: XBP1 reporter suppression in cells – counter-screen, dose response (AID 504313); conditions: XBP1 reporter cell assay, percent of control;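 also: CHO cells carrying an XBP1 reporter stimulated with tunicamycin; potency is for inhibition of the tunicamycin-induced reporter signal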
Activity calls are given as the source filed them. No rule for the calls is given here.
Hi! Could you answer with just one of these? TRUE for active, FALSE for inactive

// return assay outcome for CCOC(=O)COc1ccccc1/C=C\[N+](=O)[O-]
FALSE

// return assay outcome for CCCOC(=O)c1ccc(Oc2cn[nH]c2-c2ccc(OCC)cc2O)cc1
FALSE

// return assay outcome for O=C(COc1ccc(Cl)cc1Cl)Nc1ccccn1
FALSE

// return assay outcome for CC(C)Oc1ccc(CNC(=S)N/N=C/c2ccc([N+](=O)[O-])cc2)cc1
FALSE

// return assay outcome for Cc1cccnc1NC(=O)c1c(O)c2ccccc2n(C)c1=O
FALSE

// return assay outcome for COc1ccc(NC(=O)/C(Cl)=C(/Cl)S(=O)Cc2ccc(Cl)cc2)cn1 (configuration not stated)
TRUE

// return assay outcome for CCCCCCn1c(=O)c(C(=O)N/N=C/c2cccc(F)c2)c(O)c2ccccc21
FALSE

// return assay outcome for Cc1ccc(C(=O)Nc2cnc3ccccc3c2)cc1
TRUE

// return assay outcome for Cc1nnc(NC(=O)c2sc3nc(-c4cccs4)cc(C(F)(F)F)c3c2N)s1
FALSE

// return assay outcome for CCOC(=O)c1c(CN2CCOCC2)n(-c2ccccc2)c2cc(Br)c(O)cc12
FALSE

// return assay outcome for CSc1nc2c(cnn2-c2ccc(C)c(C)c2)c(=O)[nH]1
FALSE

// return assay outcome for CCOc1ccc2nc(NC(=O)CSc3nnnn3C3CCCCC3)sc2c1
FALSE

// return assay outcome for O=C(CN1C(=O)c2ccccc2S1(=O)=O)c1ccc2c(c1)OCCCO2
TRUE

// return assay outcome for O=C(OCC(F)(F)F)c1cccc(COc2ccc3ccccc3c2)c1
TRUE

// return assay outcome for O=C(NCc1nc(-c2ccc(C(F)(F)F)cc2)no1)Nc1cc(Cl)cc(Cl)c1
FALSE

// return assay outcome for COC(=O)C[C@]1(C(=O)OC)CN(C#N)N(c2ccc(Cl)cc2)C12c1ccccc1-c1ccccc12
TRUE

// return assay outcome for CCCCCCNC(=O)CC(c1ccccc1)c1cc(Br)ccc1O (configuration not stated)
FALSE

// return assay outcome for O=C1C=CC(=O)N1CCCCCCN1C(=O)C=CC1=O
FALSE

// return assay outcome for CC(C)(C)c1ccc(C(=O)NC(=S)NNC(=O)c2cccs2)cc1
FALSE

// return assay outcome for COC(=O)c1cc(NC(=S)Nc2cc(Cl)cc(Cl)c2)cc(C(=O)OC)c1
FALSE

// return assay outcome for COc1ccc(NS(=O)(=O)c2ccc(O)c(NC(=O)c3cc4c(C)nn(-c5ccc(F)cc5)c4s3)c2)cc1
FALSE

// return assay outcome for COc1cccc(-n2nnnc2S(C)(=O)=O)c1
FALSE

* * *

biological target: X-box-binding protein 1 (Homo sapiens) (UniProt P17861); assay: XBP1 reporter suppression in cells – counter-screen, dose response (AID 504313); settings: XBP1 reporter cell assay, percent of control;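 also: CHO cells carrying an XBP1 reporter stimulated with tunicamycin; potency is for inhibition of the tunicamycin-induced reporter signal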
Calls of active or inactive are those of the source. The rule behind the calls is not given here.
Measured Attribute: IC50

CCOC(=O)c1c(N)sc(C(O)(C(F)(F)F)C(F)(F)F)c1-c1ccc(Cl)cc1
inactive
CCC(C)(C)c1ccc(Oc2ccc(N)cc2)cc1
< 0.16 µM
Cc1nn(Cc2c(Cl)cccc2Cl)c(C)c1NC(=O)c1cn(-c2ccccc2)nc1-c1ccccc1
inactive
COc1cc2c(cc1OC)C(c1ccccc1)N(C(=O)CCl)CC2 (stereo unspecified)
inactive
O=C(NC1CCCCC1)C(c1ccc(F)cc1)N(Cc1ccccc1)C(=O)CN1C(=O)c2ccccc2S1(=O)=O (stereo unspecified)
inactive

Fill in the blank: the reported IC50 of Nc1ccc(N2CCCCCC2)cc1 is ____.
> 10 µM (inactive)

Fill in the blank: the reported IC50 of CCOC(=O)/C(=C\c1ccc(OC(F)F)cc1)C1=Nn2c(nnc2-c2ccc(Cl)cc2)SC1 is ____.
4.7 µM

Fill in the blank: the reported IC50 of CCCOc1ccccc1C1CC(=O)NC(C)=C1C(=O)OCC(C)C (stereo unspecified) is ____.
inactive

Fill in the blank: the reported IC50 of CCCCc1ccc(NC(=S)Nc2ccc(Cl)c(S(=O)(=O)N(C)C)c2)cc1 is ____.
> 10 µM (inactive)

Fill in the blank: the reported IC50 of Cc1ccc(N(c2ncnc(N)c2[N+](=O)[O-])C2CCCCC2)cc1 is ____.
> 10 µM (inactive)

Fill in the blank: the reported IC50 of Cc1cc(Br)c2c(c1)/C(=C/C(=O)c1cccs1)C(=O)N2 is ____.
> 10 µM (inactive)

Fill in the blank: the reported IC50 of CCOC(=O)c1c(/N=C/c2c(O)n(-c3cccc(C)c3)c(=O)[nH]c2=O)sc2c1CCCC2 is ____.
0.53 µM

Fill in the blank: the reported IC50 of COc1ccc(C(=O)/C=C/C(=O)N(CC(=O)NC2CCCCC2)Cc2ccc(F)cc2)c(O)c1 is ____.
2.25 µM

Fill in the blank: the reported IC50 of Cc1cccc(N=Nc2c(N)n[nH]c2-c2ccc(Cl)cc2)c1 is ____.
> 10 µM (inactive)

Fill in the blank: the reported IC50 of Nc1ccc2c(c1)C(=O)C(=O)c1ccccc1-2 is ____.
inactive

Fill in the blank: the reported IC50 of O=S(=O)(NCC(Nc1ccc(Cl)cc1)c1ccccc1)c1ccc(Cl)cc1 (stereo unspecified) is ____.
> 10 µM (inactive)

Fill in the blank: the reported IC50 of COc1ccc(C(C(=O)NC2CCCCC2)N(C(=O)CCl)c2cccc(Cl)c2)cc1 (stereo unspecified) is ____.
inactive

Fill in the blank: the reported IC50 of Cc1ccc(C(C(=O)NCc2ccco2)N(C(=O)CNC(=O)c2cccs2)c2c(C)cccc2C)cc1 (stereo unspecified) is ____.
> 10 µM (inactive)

Fill in the blank: the reported IC50 of CCOc1cccc(C(=O)Nc2cccc(-c3nnc(-c4ccc(C)cc4)o3)c2)c1 is ____.
> 10 µM (inactive)

Fill in the blank: the reported IC50 of C=C(C)Cn1c(N2CCC(Cc3ccccc3)CC2)nc2c1c(=O)[nH]c(=O)n2C is ____.
> 10 µM (inactive)

Fill in the blank: the reported IC50 of COc1ccc(CC(=O)Nc2cccc(-c3nnc(-c4cccc(C)c4)o3)c2)cc1OC is ____.
inactive
